B1: library; numbered along this chain (parent)
chain: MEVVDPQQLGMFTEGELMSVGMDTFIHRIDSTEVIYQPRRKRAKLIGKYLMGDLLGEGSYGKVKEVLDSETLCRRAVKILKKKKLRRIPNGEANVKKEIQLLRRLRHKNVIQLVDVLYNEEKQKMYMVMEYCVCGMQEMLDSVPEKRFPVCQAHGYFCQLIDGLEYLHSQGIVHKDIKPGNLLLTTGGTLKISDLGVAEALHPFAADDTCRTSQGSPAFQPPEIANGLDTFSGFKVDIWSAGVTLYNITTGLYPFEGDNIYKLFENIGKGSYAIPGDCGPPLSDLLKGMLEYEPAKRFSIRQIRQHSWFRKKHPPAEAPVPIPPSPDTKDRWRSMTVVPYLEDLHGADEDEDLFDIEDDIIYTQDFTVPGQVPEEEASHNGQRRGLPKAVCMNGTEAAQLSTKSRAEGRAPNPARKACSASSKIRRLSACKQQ

# Variants of: B1
# measurementNotes: STK11 functional score (HeLa growth suppression), rescaled enrichment; synonymous median = 1, nonsense median = 0 (normalised score)
# conditionInfo: with HeLa; variant type: missense
valueType: STK11 functional score

Which STK11 functional score value belongs to `Y118S` ?
0.99

Returns the measured STK11 functional score for the input variant. Input: `A225T`
1.65

Dear colleague, I am looking for the recorded STK11 functional score of the following variant: `C278F`
0.811

Entry `D277W` : reported STK11 functional score = ?
0.81

Param item = `D365E` ; retrieve measured STK11 functional score.
0.893

GET /values?readout=STK11 functional score&item= `V133C`
1.35

# lookup: STK11 functional score of `Q112R`
0.64

For the variant shown here, `G163E` , give the reported STK11 functional score.
-0.0159

Recorded STK11 functional score of `V3D` , please.
-0.174

Given the variant `Q399P` , what is its reported STK11 functional score?
1.35

Item under review: `L102W` . Reported STK11 functional score?
1.2

# get_value(readout='STK11 functional score', item= `E121Y` )
1.36

Entry under review: `M125Y` . Reported STK11 functional score?
1.31

Endpoint output: STK11 functional score of `L263A` . Value?
0.39

Endpoint output: STK11 functional score of `G385M` . Value?
1.59

Reported STK11 functional score for `L290H` : what is it?
-0.09

Fill in: STK11 functional score of `V173G` is ___
1.15

So what's the measured STK11 functional score for this one? `L190D`
-0.215

Query: STK11 functional score; subject: `E33G`
0.902

Report STK11 functional score for `E57H` please.
1.53

// returns reported STK11 functional score for input `F234R`
1.5

Form field: reported STK11 functional score of `D343C`
1.44

For the variant `F234E` , what STK11 functional score is on record?
1.59

Name the reported STK11 functional score value associated with the variant `D208P`
1.62

Any idea what its STK11 functional score is? The variant is `R147D`
-0.33

I'd like to know its STK11 functional score. The variant in question is `K329F`
1.18

Item under review: `D348A` . Reported STK11 functional score?
1.54

For the variant shown here, `K269I` , give the reported STK11 functional score.
1.28

// STK11 functional score lookup, key: `A43W`
1.06

# input variant: `A347P` ; wanted: its STK11 functional score
1.21

Quick one: STK11 functional score of `L101W` ?
-0.0513

Reported STK11 functional score for `L54N` : what is it?
1.64

Could you share which STK11 functional score value was measured for `P203L` ?
1.27

Can you share its STK11 functional score? I mean this variant: `S216G`
0.926

Request the reported STK11 functional score associated with `M136Q`
0.0397

// STK11 functional score lookup, key: `H168R`
0.838

What value of STK11 functional score has been reported for the following variant? `T328W`
1.59

Item `E165R` has what recorded STK11 functional score?
1.18

Consider the variant `T244S` and give its measured STK11 functional score.
0.613

// returns reported STK11 functional score for input `G233S`
1.44

# query: STK11 functional score of entry `T212E`
1.65

If you can, please state the reported STK11 functional score value of `Y36L` .
1.03

Consider the variant shown here: `E33N` What is its recorded STK11 functional score?
1.33

Which value of STK11 functional score has been reported for `P321G` in the records?
1.01

Any idea what STK11 functional score was measured for `A76G` ?
1.09

Given the variant `N109I` , what is its reported STK11 functional score?
0.256

Would you mind telling me what STK11 functional score value was observed for `A43G` ?
0.859

Please look up its STK11 functional score: `C391T`
0.912

# input variant: `V337G` ; wanted: its STK11 functional score
1.13

Need STK11 functional score, item `G91Q`
1.1

Reported STK11 functional score, variant `P144A` : ____
1.08

# get_value(readout='STK11 functional score', item= `I322H` )
0.839

Looking for the measured STK11 functional score of `N247L` , can you help?
1.17

May I ask what STK11 functional score has been recorded for `I99F` ?
1.64

// query STK11 functional score value for entry `K41S`
1.46

Please look up its STK11 functional score: `H313G`
1.13

Could you tell me which STK11 functional score is on file for `D194F` ?
-0.213

What measured STK11 functional score goes with `K416F` ?
0.683

Can you look up the measured STK11 functional score of `G58N` for me?
0.559

What value of measured STK11 functional score is listed for `E351I` ?
1.27

Would you kindly share the measured STK11 functional score for `G61Q` ?
0.913

Which STK11 functional score value is on record for `A218M` ?
1.35

Give its STK11 functional score value. Item: `E199A`
1.44

Quick one: STK11 functional score of `I361D` ?
1.5

Which measured STK11 functional score value corresponds to `R331N` ?
1.35

Could you tell me which STK11 functional score is on file for `S19H` ?
0.00479

Looking for the measured STK11 functional score of `I322F` , can you help?
1.25

Name the recorded STK11 functional score for `E57W` .
0.873

# input variant: `K388R` ; wanted: its STK11 functional score
1.54

Would you mind telling me what STK11 functional score value was observed for `L50W` ?
0.44

Give the measured STK11 functional score of `G15E` .
1.68

Return reported STK11 functional score; argument: `I360N`
1.11

Quick one: STK11 functional score of `I267H` ?
1.45

Would you mind telling me what STK11 functional score value was observed for `P319C` ?
0.642

Which STK11 functional score value belongs to `V110P` ?
0.481

# lookup: STK11 functional score of `R87G`
1.11

Query: STK11 functional score; subject: `L72S`
0.585

Given the entry `A76Q` , report its measured STK11 functional score.
0.447

Requested field: STK11 functional score. Item: `E293S`
1.08

Return reported STK11 functional score; argument: `Q7L`
1.25

Please report the recorded STK11 functional score for `E349S` .
1.38

Param item = `G288L` ; retrieve measured STK11 functional score.
0.221

Given the entry `R333K` , report its measured STK11 functional score.
1.61

For `T186M` , what is its reported STK11 functional score?
0.369

Given the entry `K84G` , report its measured STK11 functional score.
1.47

Bench note: what STK11 functional score did `L285V` show?
0.239

Request the reported STK11 functional score associated with `E70A`
1.43

Which STK11 functional score value belongs to `F354R` ?
1.53

// returns reported STK11 functional score for input `C132I`
1.32

Given the variant `R415K` , what is its reported STK11 functional score?
1.17

Which STK11 functional score is listed for `L105Y` ?
1.36
